biological target: T1, human CD3 on CD3+ Jurkat cells (human, UniProt P07766 23-207); test: flow cytometry, 100 nM IgG on CD3+ Jurkat cells, pH 6.0
T1 construct: whole, on cells; Native CD3 complex on cells; the other CD3 chains are not specified for this assay; also called Human CD3+ Jurkat
T1 sequence (P07766 23-207): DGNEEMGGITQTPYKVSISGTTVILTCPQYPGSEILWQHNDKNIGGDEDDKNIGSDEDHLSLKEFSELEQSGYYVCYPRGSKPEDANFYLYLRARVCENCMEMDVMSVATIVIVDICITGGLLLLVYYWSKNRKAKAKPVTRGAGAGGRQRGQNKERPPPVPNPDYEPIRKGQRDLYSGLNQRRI
# maps each entry to its MFI pH 6.0
Just the number in MFI, nothing appended.

SAD10318_P03_D08 (ADI-48604) (antibody, V domains shown, IgG; also called Ab198) VH: QVQLVQSGAEVKKPGASVKVSCKASGFNIKDYYMHWVRQAPGQRLEWMGWIDLENANTIYDAKFQGRVTITRDTAASTAYMELSSLRSEDTAVYYCARDHYHRYFYDHWGQGTLVTVSS VL: DIVMTQSPDSLAVSLGERATINCKSSQSLLNAHTGKNHLAWYQQKPGQPPKLLIYWASTRESGVPDRFSGSGSGTDFTLTISSLQAEDVAVYYCKQSYSRRTFGGGTKVEIK
199

Task: Report MFI pH 6.0, nothing else, for this binder: SAD10318_P02_D05 (ADI-48598) (antibody, V domains shown, IgG; also called Ab181) VH: QVQLVQSGAEVKKPGASVKVSCKASGFNIKDYYMHWVRQAPGQRLEWMGWIDLENANTIYDAKFQGRVTITRDTSASTAYMELSSLRSEDTAVYYCARDHYGHYFYDVWGQGTLVTVSS VL: DIVMTQSPDSLAVSLGERATINCKSSQSLLNARTGKNHLAWYQQKPGQPPKLLIYWASTRESGVPDRFSGSGSGTDFTLTISSLQAEDVAVYYCKQSYHHRTFGGGTKVEIK
Output: 279
